assay: MM1S cell viability effects, profiling panel, calcein-AM fluorescence, 48 h, basal (AID 1165); conditions: higher = more signal;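 note: viability of MM1S multiple myeloma cells under basal unstimulated conditions; test concentration not given here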
Please respond with reported z-score for every item in the list.
Lab note: write the figure by itself, no unit.

Need z-score, item CN1C(=O)C2C=CC(C(O)c3ccco3)N(Nc3ccccc3)C2C1=O (stereo unspecified) -1.34

Quick check: z-score of Cc1ccc(S[C@]2(C(=O)NCCCN(C)C)CC(=O)N(Cc3cc(C(F)(F)F)cc(C(F)(F)F)c3)[C@@H]2c2ccc(CO)cc2)cc1 ? -0.47

For the molecule shown here, O=C(c1ccccc1)N1Cc2ccccc2C[C@@]2(COC(c3ccc(OCCCO)cc3)=N2)C1=O , give the reported z-score. -0.516

Endpoint output: z-score of CC(=O)n1cc(C(O)C2C=CC3C(=O)N(c4ccccc4)C(=O)C3N2Nc2ccc([N+](=O)[O-])cc2)c2ccccc21 (stereo unspecified) . Value? -1.53

Given C=CCNC(=O)[C@@H]1[C@H]2C(=O)O[C@H](c3ccccc3)[C@H](c3ccccc3)N2[C@H](c2ccc(OCCO)cc2)[C@@]12C(=O)Nc1ccc(C#CCC(C(=O)OC)C(=O)OC)cc12 , state its recorded z-score. -3.45

For the molecule COC(=O)C(CC#Cc1ccc2c(c1)[C@]1(C(=O)N2)[C@H](C(=O)Nc2nc3ccccc3s2)[C@H]2C(=O)O[C@H](c3ccccc3)[C@H](c3ccccc3)N2[C@@H]1c1ccccc1OCCO)C(=O)OC , what z-score is on record? -0.426

Param item = O=C1[C@@]23C=C(Br)[C@H](C[C@@H]2CCOC3)[C@@]12CO2 ; retrieve measured z-score. -1.89

For the molecule shown here, C=CC[C@]1(C(=O)NCCCOC)N=C(c2ccc(OCCCO)cc2)O[C@H]1c1ccccc1CN=[N+]=[N-] , give the reported z-score. -1.86

Could you share which z-score value was measured for Cc1nc2cc(Br)ccc2c(=O)o1 ? 0.729

Any idea what its z-score is? The molecule is O=C1O[C@@H](c2ccccc2)[C@@H](c2ccccc2)N2[C@@H](c3ccccc3OCCO)[C@]3(C(=O)Nc4ccc(C#CC5=CCCCC5)cc43)[C@@H](C(=O)N3CCCCCCC3)[C@H]12 -3.09

Which z-score value is on record for CC(C)NC(=O)[C@@H]1c2ccccc2C(=O)N(C2Cc3ccccc3C2)[C@H]1c1ccc(CO)cc1 ? 0.543

Would you mind telling me what z-score value was observed for O=C(CS)NCCCCCCNC(=O)[C@@H]1C[C@@H]2C(=O)N[C@@H](Cc3ccccc3)C(=O)N2[C@@H]1c1cccc(OCCO)c1 ? -0.204

// lookup z-score for C=CCOC(=O)[C@H]1[C@@H]2C(=O)O[C@@H](c3ccccc3)[C@@H](c3ccccc3)N2[C@@H](c2ccc(OCCOC(=O)[C@H]3C[C@H]4C(=O)N[C@@H](CCCCNC(C)=O)C(=O)N4[C@H]3c3cccc(OCCO)c3)cc2)[C@]12C(=O)Nc1ccccc12 -0.297

Value lookup for z-score; key = COc1cccc(-c2cccc(=O)o2)c1 0.192

Suppose we examine the molecule CN(C)CCCC[C@@H]1NC(=O)[C@@H]2C[C@H](C(=O)NCCCCCCN)[C@H](c3cccc(OCCO)c3)N2C1=O ; what z-score value has been reported? -0.304

I'd like to know its z-score. The molecule in question is CCc1cccc(NC(=O)O[C@H]2[C@H](OC(=O)Nc3ccccc3-c3ccccc3)[C@@H](OC(=O)Nc3ccccc3-c3ccccc3)[C@@H](OC)O[C@@H]2CO)c1 -3.46

Fill in the blank: the reported z-score of C=CCOC(=O)[C@H]1[C@@H]2C(=O)O[C@@H](c3ccccc3)[C@@H](c3ccccc3)N2[C@@H](c2ccc(OCCOC(=O)[C@H]3C[C@H]4C(=O)N[C@@H](CCCCNC(C)=O)C(=O)N4[C@H]3c3ccc(O)cc3)cc2)[C@]12C(=O)Nc1ccc(I)cc12 is ____. -2.94

Suppose we examine the molecule COc1cc2c(cc1OC)CN(C(=O)[C@@H]1[C@H]3C(=O)O[C@H](c4ccccc4)[C@H](c4ccccc4)N3[C@H](c3ccc(O)cc3)[C@@]13C(=O)Nc1ccccc13)CC2 ; what z-score value has been reported? 0.0197

Item Cc1ccc(S[C@]2(C(=O)NCCCN(C)C)CC(=O)N(Cc3cc(C(F)(F)F)cc(C(F)(F)F)c3)[C@@H]2c2ccc(CO)cc2I)cc1 has what recorded z-score? -2.19

Fill in the blank: the reported z-score of COc1ccccc1CN1C(=O)c2ccccc2[C@@]2(Cc3ccccc3N(CC(C)C)C2=O)[C@@H]1c1ccc(CO)cc1 is ____. -0.481

Which z-score value belongs to COCCOC(=O)N1C(=O)[C@@]2(c3ccccc31)[C@H](C(=O)N1CCc3cc(OC)c(OC)cc3C1)[C@H]1C(=O)O[C@H](c3ccccc3)[C@H](c3ccccc3)N1[C@@H]2c1ccc(OCCO)cc1 ? -1.1

Can you share its z-score? I mean this molecule: COc1ccc(CCNC(=O)[C@@H]2c3ccccc3C(=O)N(Cc3ccccc3Cl)[C@H]2c2ccc(CO)cc2)cc1 -0.897

Looking for the measured z-score of O=C1c2ccccc2[C@](Cc2ccccc2I)(C(=O)NCC(F)(F)F)[C@H](c2ccc(CO)cc2)N1Cc1ccccc1Cl , can you help? -1.06

Name the reported z-score value associated with the molecule CCCC[C@@H]1C[C@H]1[C@@H](NC(=O)C(C)(C)C)c1ccc(C(F)(F)F)cc1 -2.43

Requested read-out: z-score. Entry: C=CCNC(=O)[C@@H]1[C@H]2C(=O)O[C@H](c3ccccc3)[C@H](c3ccccc3)N2[C@H](c2ccc(O)cc2)[C@@]12C(=O)N(C(=O)OCCOC)c1ccc(C#CCNC(N)=O)cc12 0.768

Requested read-out: z-score. Entry: CCOC(=O)C[C@H]1[C@H](OC(=O)c2ccc(C(=O)c3ccccc3)cc2)[C@@H](NC(=O)c2ccccc2)c2cc(OCCCO)ccc2N1C(=O)Cc1ccc(OC)cc1 -0.797

###

assay: CREB reporter modulators under forskolin, primary screen, cell-based, PC12, CRE-LacZ reporter, forskolin-stimulated (AID 1146); settings: luminescence, 4.5 h, higher = more signal, called active from +8 up or from −8 down;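 note: PC12 cells with 6xCRE LacZ reporter stimulated by forskolin 10 µM; beta-galactosidase reporter signal reflecting CREB driven transcription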
MEASURED_ENDPOINT: z-score
Output: the number by itself.

# input compound: C=CCNC(=O)[C@@H]1[C@H]2C(=O)O[C@H](c3ccccc3)[C@H](c3ccccc3)N2[C@H](c2ccc(O)cc2)[C@@]12C(=O)N(C(=O)OCCOC)c1ccc(C#CCNC(N)=O)cc12 ; wanted: its z-score 0.273

Could you share which z-score value was measured for NC(=O)NCC#Cc1ccc2c(c1)[C@]1(C(=O)N2)[C@H](C(=O)Nc2nc3ccccc3s2)[C@H]2C(=O)O[C@H](c3ccccc3)[C@H](c3ccccc3)N2[C@@H]1c1ccccc1OCCO ? -0.327

Can you share its z-score? I mean this compound: O=C(NCCO)C1=C[C@H](Oc2ccccc2I)[C@@H](O)[C@H](N(Cc2ccco2)C(=O)Cc2ccccc2)C1 0.603

Would you mind telling me what z-score value was observed for C#C[C@H](O[Si](C#Cc1ccc(Oc2ccccc2)cc1)(C(C)C)C(C)C)c1ccccc1 ? 1.7

// lookup z-score for COc1ccccc1CN1C(=O)c2ccccc2[C@@]2(Cc3ccccc3N(CC(C)C)C2=O)[C@@H]1c1ccc(CO)cc1 0.462

Query (compound): NC(=O)N1C(=O)C2C(C1=O)C1C=C(c3ccc(CO)cc3)C2C(c2cccs2)N1Cc1cccc(OC(F)(F)F)c1 (stereo not given) ; field requested: z-score -1.58

Given CNS(=O)(=O)c1ccc(C)cc1 , state its recorded z-score. -0.391

Item under review: C[N+](C)(C)CCCC[C@@H]1NC(=O)[C@H]2C[C@@H](C(=O)NCCCCCCNC(=O)CS)[C@@H](c3cccc(OCCO)c3)N2C1=O . Reported z-score? 0.0114

Fill in: z-score of CCCCCCc1nc(-c2cc(C)c(OC)c(C)c2)cc2c1[Si](C(C)C)(C(C)C)OC2 is ___ 0.0738

Query: z-score; subject: CN1C(=O)C2C=CC(C(O)c3ccc([N+](=O)[O-])cc3)N(N3CCCCC3)C2C1=O (stereo not given) 0.316

Quick check: z-score of COc1cc2c(cc1O)C(C1CC1)N(Cc1sc3ccccc3c1Cl)CC2 (stereo not given) ? 1.82

Sample CN(C)CCCC[C@@H]1NC(=O)[C@H]2C[C@@H](C(=O)NCCCCCCN)[C@@H](c3ccc(O)cc3)N2C1=O — what was its z-score? -0.139

Quick check: z-score of COC(=O)c1c(CC[C@@H](CO)NC(=O)NCCn2cc(C3(O)CCCC3)nn2)oc(C(C)=O)c1C(=O)OC ? -0.194

So what's the measured z-score for this one? C=CCNC(=O)[C@H]1[C@@H]2C(=O)O[C@@H](c3ccccc3)[C@@H](c3ccccc3)N2[C@@H](c2ccccc2OCCO)[C@]12C(=O)Nc1ccc(C#CCC(C(=O)OC)C(=O)OC)cc12 0.876

Which z-score value is on record for C=CC(=C)[C@H]1Oc2ccccc2S(=O)(=O)N2CCC[C@@H]12 ? 0.133

Suppose we examine the compound NC(=O)[C@@H]1[C@H]2C(=O)O[C@H](c3ccccc3)[C@H](c3ccccc3)N2[C@H](c2ccc(O)cc2)[C@@]12C(=O)Nc1ccccc12 ; what z-score value has been reported? 0.276

Consider the compound O=C1OCCC/C=C\[C@H]2OC34C=CCN(Cc5ccccc5)C(=O)[C@H]3N(CCCO)C(=O)[C@@H]4C12 (stereo not given in full) and give its measured z-score. -0.59

Look up z-score for this compound: CCCCN1CC=CC23O[C@@H]4C=CCCOC(=O)C4[C@H]2C(=O)N(CCCCCCO)[C@@H]3C1=O (stereo not given in full) -0.199

Could you share which z-score value was measured for C=C(C)[C@@H]1CC=C(C(O)C2C=CC3C(=O)N(c4ccccc4)C(=O)C3N2Nc2ccccc2)CC1 (stereo not given in full) ? -0.0811

Which value of z-score has been reported for COC(=O)[C@@]1(Cc2ccc(F)cc2)[C@H]2c3cc(C(=O)N(C)C)n(Cc4ccc(Cl)c(C(F)(F)F)c4)c3C[C@H]2CN1C(=O)c1ccccc1 in the records? 0.778

Consider the compound shown here: O=C1O[C@H](c2ccccc2)[C@H](c2ccccc2)N2[C@H]1[C@@H](C(=O)N1CCCCCCC1)[C@]1(C(=O)Nc3ccc(C#CC4=CCCCC4)cc31)[C@H]2c1ccc(OCCO)cc1 What is its recorded z-score? -0.617

z-score for CC1CC/C=C\[C@H]2OC34C=CCN(Cc5ccccc5)C(=O)[C@H]3N(CCCO)C(=O)[C@@H]4C2C(=O)O1 (stereo not given in full) ? 0.776

Endpoint output: z-score of OCCCC1=CC(c2cccs2)N(Cc2cc3c(cc2Br)OCO3)CC1 (stereo not given) . Value? -0.056

Need z-score, item O=C(c1ccccc1)N1Cc2ccccc2C[C@@]2(COC(c3ccc(OCCCO)cc3)=N2)C1=O -0.152

Query: z-score; subject: COc1ccc(CCNC(=O)[C@@]2(C)c3ccccc3C(=O)N(C(C)C)[C@H]2c2ccc(CO)cc2)cc1 0.727

Given the compound COc1cc2c(cc1OC)CN(C(=O)[C@@H]1[C@H]3C(=O)O[C@H](c4ccccc4)[C@H](c4ccccc4)N3[C@H](c3ccccc3OCCO)[C@@]13C(=O)Nc1ccc(C#CCCO)cc13)CC2 , what is its reported z-score? -0.988

Give its z-score value. Item: CN(C)CCCCCCNC(=O)[C@@H]1C[C@@H]2C(=O)N[C@@H](Cc3ccccc3)C(=O)N2[C@@H]1c1ccc(O)cc1 -0.167

Form field: reported z-score of CCC(CC)C(O)C1C=CC2C(=O)NC(=O)C2N1Nc1ccc(Cl)cc1Cl (stereo not given) -0.273

Entry CCCCCCc1nc(-c2ccc(OC)nc2)cc2c1[Si](C(C)C)(C(C)C)O[C@H]2c1ccccc1 has what z-score? 0.03

Look up z-score for this compound: C=C(COC)C(=O)CC[C@@H](OC(C)=O)c1ccc(CO)o1 0.283
